Reported geometric mean by item:
- measurement_target: T1, MUC1 on HCT116/MUC1 cells (UniProt P15941 24-1255, limits assumed)
- T1 construct: whole, on cells; also called MUC1 overexpressed cell line
- T1 sequence (P15941 24-1255 limits assumed): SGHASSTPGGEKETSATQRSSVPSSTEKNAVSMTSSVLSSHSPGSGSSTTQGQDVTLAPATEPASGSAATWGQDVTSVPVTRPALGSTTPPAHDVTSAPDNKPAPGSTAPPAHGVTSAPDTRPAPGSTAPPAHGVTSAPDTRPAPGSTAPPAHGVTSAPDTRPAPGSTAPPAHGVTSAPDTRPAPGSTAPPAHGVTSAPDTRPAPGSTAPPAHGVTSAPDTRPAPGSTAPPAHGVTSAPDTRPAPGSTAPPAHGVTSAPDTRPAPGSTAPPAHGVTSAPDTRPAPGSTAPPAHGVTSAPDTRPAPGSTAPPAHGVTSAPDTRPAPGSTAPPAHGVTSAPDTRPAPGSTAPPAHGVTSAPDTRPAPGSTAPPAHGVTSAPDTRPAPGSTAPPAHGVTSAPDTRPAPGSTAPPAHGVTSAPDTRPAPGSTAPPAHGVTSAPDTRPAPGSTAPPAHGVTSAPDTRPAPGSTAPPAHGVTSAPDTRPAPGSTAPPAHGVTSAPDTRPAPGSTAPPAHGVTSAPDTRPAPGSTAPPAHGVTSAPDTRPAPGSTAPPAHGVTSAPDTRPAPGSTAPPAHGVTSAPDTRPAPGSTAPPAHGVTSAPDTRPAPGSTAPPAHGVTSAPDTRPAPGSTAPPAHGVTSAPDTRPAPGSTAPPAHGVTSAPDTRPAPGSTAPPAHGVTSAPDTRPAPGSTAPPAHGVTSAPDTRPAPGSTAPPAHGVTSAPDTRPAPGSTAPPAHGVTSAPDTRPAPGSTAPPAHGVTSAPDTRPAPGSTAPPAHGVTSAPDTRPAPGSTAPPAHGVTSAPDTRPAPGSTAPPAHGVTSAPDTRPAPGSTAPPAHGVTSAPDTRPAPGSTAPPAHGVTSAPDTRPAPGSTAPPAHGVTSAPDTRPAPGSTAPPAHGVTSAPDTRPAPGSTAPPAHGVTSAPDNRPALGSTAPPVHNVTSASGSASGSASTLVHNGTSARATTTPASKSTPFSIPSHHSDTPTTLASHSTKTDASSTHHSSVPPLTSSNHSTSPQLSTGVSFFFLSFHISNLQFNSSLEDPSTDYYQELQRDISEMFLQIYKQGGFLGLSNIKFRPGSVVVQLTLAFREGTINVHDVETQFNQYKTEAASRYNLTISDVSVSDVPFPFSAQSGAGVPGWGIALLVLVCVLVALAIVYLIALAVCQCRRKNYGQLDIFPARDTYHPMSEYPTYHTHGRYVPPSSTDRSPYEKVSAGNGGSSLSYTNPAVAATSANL
- assay_summary: FACS titration, HCT116/MUC1 cells, antibody at 31.25 nM

binder | geometric mean
VH1 + VL1 (antibody, V domains shown, Humanized IgG expressed in HEK293; also called humanized antibody VH1+VL1) VH: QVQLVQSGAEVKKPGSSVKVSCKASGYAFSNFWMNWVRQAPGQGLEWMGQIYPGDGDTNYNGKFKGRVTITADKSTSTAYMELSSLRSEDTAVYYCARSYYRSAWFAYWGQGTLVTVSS VL: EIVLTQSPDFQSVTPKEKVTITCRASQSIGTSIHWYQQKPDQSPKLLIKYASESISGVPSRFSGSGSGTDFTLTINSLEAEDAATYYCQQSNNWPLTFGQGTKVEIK | 185
VH5 + VL1 (antibody, V domains shown, Humanized IgG expressed in HEK293; also called humanized antibody VH5+VL1) VH: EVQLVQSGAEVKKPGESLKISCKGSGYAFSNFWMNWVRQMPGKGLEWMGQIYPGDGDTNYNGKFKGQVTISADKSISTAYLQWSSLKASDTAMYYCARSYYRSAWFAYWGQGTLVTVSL VL: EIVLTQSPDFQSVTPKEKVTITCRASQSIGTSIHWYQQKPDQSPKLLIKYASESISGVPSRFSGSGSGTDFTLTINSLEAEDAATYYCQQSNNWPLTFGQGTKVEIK | 219
VH5 + VL4 (antibody, V domains shown, Humanized IgG expressed in HEK293; also called humanized antibody VH5+VL4) VH: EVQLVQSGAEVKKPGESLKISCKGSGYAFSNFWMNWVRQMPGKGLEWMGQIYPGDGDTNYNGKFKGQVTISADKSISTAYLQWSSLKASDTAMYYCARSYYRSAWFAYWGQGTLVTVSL VL: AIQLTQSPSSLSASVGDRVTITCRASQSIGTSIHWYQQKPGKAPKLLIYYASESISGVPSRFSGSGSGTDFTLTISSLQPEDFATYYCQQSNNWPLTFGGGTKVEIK | 152
VH5 + VL3 (antibody, V domains shown, Humanized IgG expressed in HEK293; also called humanized antibody VH5+VL3) VH: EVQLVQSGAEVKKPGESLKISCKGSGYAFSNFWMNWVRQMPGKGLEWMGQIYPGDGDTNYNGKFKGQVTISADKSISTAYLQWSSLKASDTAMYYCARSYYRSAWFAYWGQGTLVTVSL VL: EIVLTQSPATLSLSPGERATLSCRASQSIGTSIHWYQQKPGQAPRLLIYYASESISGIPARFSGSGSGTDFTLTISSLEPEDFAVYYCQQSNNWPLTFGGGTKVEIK | 110
VH2 + VL3 (antibody, V domains shown, Humanized IgG expressed in HEK293; also called humanized antibody VH2+VL3) VH: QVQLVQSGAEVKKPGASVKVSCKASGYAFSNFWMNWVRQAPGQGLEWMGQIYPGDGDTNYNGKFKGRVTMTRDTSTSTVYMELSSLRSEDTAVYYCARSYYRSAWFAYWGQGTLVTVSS VL: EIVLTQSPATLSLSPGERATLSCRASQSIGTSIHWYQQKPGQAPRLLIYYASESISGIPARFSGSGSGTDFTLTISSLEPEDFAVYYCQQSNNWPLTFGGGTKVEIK | 60.4
VH3 + VL3 (antibody, V domains shown, Humanized IgG expressed in HEK293; also called humanized antibody VH3+VL3) VH: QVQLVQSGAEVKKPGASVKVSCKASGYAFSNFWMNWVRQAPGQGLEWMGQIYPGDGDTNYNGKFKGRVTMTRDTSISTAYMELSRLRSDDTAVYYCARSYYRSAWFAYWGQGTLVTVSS VL: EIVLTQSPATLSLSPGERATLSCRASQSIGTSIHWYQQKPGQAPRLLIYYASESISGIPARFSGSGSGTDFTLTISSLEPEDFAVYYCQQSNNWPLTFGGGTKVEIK | 77.2
VH3 + VL1 (antibody, V domains shown, Humanized IgG expressed in HEK293; also called humanized antibody VH3+VL1) VH: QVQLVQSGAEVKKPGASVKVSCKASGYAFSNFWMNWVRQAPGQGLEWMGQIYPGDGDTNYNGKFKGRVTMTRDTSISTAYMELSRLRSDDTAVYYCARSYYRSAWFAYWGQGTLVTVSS VL: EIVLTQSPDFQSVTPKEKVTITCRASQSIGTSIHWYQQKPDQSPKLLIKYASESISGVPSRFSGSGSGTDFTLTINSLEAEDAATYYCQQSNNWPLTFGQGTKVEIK | 192
VH3 + VL4 (antibody, V domains shown, Humanized IgG expressed in HEK293; also called humanized antibody VH3+VL4) VH: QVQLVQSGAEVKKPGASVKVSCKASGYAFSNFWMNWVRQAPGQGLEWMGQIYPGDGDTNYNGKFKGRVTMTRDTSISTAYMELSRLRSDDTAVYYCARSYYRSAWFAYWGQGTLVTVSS VL: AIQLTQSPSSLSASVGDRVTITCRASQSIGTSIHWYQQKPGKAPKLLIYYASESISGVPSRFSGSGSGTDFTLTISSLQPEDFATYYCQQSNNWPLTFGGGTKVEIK | 130
VH2 + VL4 (antibody, V domains shown, Humanized IgG expressed in HEK293; also called humanized antibody VH2+VL4) VH: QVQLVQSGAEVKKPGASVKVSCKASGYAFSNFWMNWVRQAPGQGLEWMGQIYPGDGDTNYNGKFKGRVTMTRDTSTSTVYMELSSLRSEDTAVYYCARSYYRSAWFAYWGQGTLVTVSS VL: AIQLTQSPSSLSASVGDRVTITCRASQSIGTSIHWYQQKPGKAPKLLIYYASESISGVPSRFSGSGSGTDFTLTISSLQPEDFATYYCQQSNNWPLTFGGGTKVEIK | 74.6
VH1 + VL4 (antibody, V domains shown, Humanized IgG expressed in HEK293; also called humanized antibody VH1+VL4) VH: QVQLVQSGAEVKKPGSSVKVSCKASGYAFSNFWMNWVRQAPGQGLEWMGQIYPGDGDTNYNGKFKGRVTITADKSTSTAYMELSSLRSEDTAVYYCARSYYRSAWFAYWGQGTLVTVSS VL: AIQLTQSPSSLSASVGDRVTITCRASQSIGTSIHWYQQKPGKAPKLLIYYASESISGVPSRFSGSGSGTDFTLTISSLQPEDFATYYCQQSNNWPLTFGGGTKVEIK | 73.3
VH2 + VL1 (antibody, V domains shown, Humanized IgG expressed in HEK293; also called humanized antibody VH2+VL1) VH: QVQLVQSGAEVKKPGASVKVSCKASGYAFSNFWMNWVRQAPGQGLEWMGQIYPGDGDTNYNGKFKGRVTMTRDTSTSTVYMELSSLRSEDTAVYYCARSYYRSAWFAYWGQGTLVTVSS VL: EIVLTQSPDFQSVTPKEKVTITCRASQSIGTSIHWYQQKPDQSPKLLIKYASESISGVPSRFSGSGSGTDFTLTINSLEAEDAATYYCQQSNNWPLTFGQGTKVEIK | 126
